# experimentalSystem: T1, human PD-1 extracellular domain fused with mouse Fc (PD-1-mFc) (human, UniProt Q15116 25-170)
# T1 construct: extracellular domain; not used because of the label; also called hPD-1-mFc; human PD-1-mouse Fc fusion protein
# T1 sequence (Q15116 25-170): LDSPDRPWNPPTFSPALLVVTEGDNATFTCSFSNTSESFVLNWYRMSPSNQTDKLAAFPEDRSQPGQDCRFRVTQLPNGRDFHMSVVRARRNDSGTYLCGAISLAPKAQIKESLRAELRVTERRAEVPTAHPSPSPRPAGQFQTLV
# assayOverview: blockage ELISA, coated PD-1-mFc, competitor PDL-1-mFc-biotin
Listing of recorded IC50 by entry.
readoutLabel: IC50 (µg/mL)

binder	uom	measuredValue
14A6 murine anti-PD-1 antibody (antibody, V domains shown, Purified hybridoma antibody; also called 14A6-mIgG1) VH: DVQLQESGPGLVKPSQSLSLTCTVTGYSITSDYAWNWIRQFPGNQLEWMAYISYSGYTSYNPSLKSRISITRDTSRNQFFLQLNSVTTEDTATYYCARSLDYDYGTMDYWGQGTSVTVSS VL: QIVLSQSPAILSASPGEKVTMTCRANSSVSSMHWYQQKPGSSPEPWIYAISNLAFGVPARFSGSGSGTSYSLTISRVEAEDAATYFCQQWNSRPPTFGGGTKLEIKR	µg/mL	0.923
6E1 murine anti-PD-1 antibody (antibody, V domains shown, Purified hybridoma antibody; also called 6E1-mIgG1) VH: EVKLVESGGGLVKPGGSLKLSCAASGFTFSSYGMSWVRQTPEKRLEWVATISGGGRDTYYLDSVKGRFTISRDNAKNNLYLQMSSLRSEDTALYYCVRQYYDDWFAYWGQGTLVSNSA VL: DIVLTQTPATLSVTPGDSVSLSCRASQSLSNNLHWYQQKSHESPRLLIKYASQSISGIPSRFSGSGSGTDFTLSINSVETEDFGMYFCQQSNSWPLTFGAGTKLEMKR	µg/mL	0.961
10D1 murine anti-PD-1 antibody (antibody, V domains shown, Purified hybridoma antibody; also called 10D1-mIgG1) VH: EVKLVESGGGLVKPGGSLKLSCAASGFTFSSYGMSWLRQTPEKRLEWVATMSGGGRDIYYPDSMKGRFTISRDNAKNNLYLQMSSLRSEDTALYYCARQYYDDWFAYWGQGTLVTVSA VL: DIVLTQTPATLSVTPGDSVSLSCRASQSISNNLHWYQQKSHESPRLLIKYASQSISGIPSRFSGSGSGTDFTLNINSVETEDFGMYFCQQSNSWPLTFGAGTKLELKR	µg/mL	1.41
